All values here come from the supplement of paper PMC9732359.

assay details: protein stability index of a GFP-peptide fusion (yeast GPS) (PSI 1-4); higher = more stable; sorted into four equal gates, so the index is relative within each strain
condition description: san1∆
Outcome label depends on protein stability index relative to 3: at/above gives Fulfilled, below gives Not fulfilled.

As a guide, the following entries are already answered.
EIDHQEYSPEILQIREE [RRP6] :: Fulfilled
TSKTVSNQFKRSLATAV [COR1] :: Not fulfilled
IRINDEPILGQITLTFI [YML103C/NUP188] :: Not fulfilled
YGNRAEQFLETDSDFAK [SRP68] :: Fulfilled
EGLSAQIAFDLVSSASQ [RPN2] :: Not fulfilled
EKNGGLGWDLDAIIPFA [FAS2] :: Fulfilled

For this sequence, is measured protein stability index 3 or higher? ILTREVQNSTLAQLTSK [RPS1B]
Not fulfilled

For this sequence, is measured protein stability index 3 or higher? NIDYQKGLLIWRLLFID [GRR1]
Not fulfilled

* * *

assay details: protein stability index of a GFP-peptide fusion (yeast GPS) (PSI 1-4); higher = more stable; sorted into four equal gates, so the index is relative within each strain
condition description: doa10∆
endpoint name: protein stability index
Just the number, please, no unit after it.

As a guide, the following entries are already answered.
LDIGLQRTTTGARVFGA [RPL5] :: 1.35
GVDPTGSHLFSIHAHGS [PUP1] :: 2.31

What measured protein stability index goes with VTEETTKQIQSVRIDGR [SIR4] ?
2.31

What measured protein stability index goes with MILNYNPSQGVSNSGAQ [UBP6] ?
3.25

* * *

assay details: protein stability index of a GFP-peptide fusion (yeast GPS) (PSI 1-4); higher = more stable; sorted into four equal gates, so the index is relative within each strain
condition description: ubr1∆
Reported protein stability index values are given for each entry in this list.

What measured protein stability index goes with MGSRRYDSRTTIFSPEG [PRE9] ?
3.06

What measured protein stability index goes with LYNKIWTEASSSGAGTV [ECM29] ?
2.93

What measured protein stability index goes with DWPTYVDQNPLTMHKII [SRB8] ?
2.91

* * *

assay details: protein stability index of a GFP-peptide fusion (yeast GPS) (PSI 1-4); higher = more stable; sorted into four equal gates, so the index is relative within each strain
condition description: ubr1∆
Outcome label depends on protein stability index relative to 3: at/above gives T, below gives F.

TRSHEYGRKSFRNNKND [REC8] :: T
KADIGKPGRMPFNFTVT [CDC53] :: F
MSLQHEKVTIAPLVLLS [RPN8] :: F
KVGAEMMMQQQLKNVQL [MED2] :: F

For this sequence, is measured protein stability index 3 or higher? FLDGIYVSHKGFITEDL [RPL9A]
T

For this sequence, is measured protein stability index 3 or higher? TVQSERAFQKQPHIFNN [RPS11A]
F

For this sequence, is measured protein stability index 3 or higher? MSIVFGDKFSEDFRIQF [UBP6]
F

For this sequence, is measured protein stability index 3 or higher? AVSVANGFMHAGTTDNS [RPN2]
F

For this sequence, is measured protein stability index 3 or higher? MSVERGIRWELISRLCP [RPT1]
F

* * *

Reported protein stability index values are given for each entry in this list.
assay details: protein stability index of a GFP-peptide fusion (yeast GPS) (PSI 1-4); higher = more stable; sorted into four equal gates, so the index is relative within each strain
condition description: san1∆
Just the number, please, no unit after it.

VDVLVISSHSHPVSLIS [RRP42] :: 1.57
ELKTRDATNTSYKMIQL [SWP82] :: 3.16
LQWHAMIELICSSATVP [AAR2] :: 1.59
LSGLAQRKTNGASNGDD [BRN1] :: 3.05

What measured protein stability index goes with QDVLQMLGRAGRPRYDT [BRR2] ?
3.43

What measured protein stability index goes with RGGVKRISGLIYEEVRA [HHF1] ?
3.15
